Molecular target: human Edg-1 (S1P1) (Homo sapiens, UniProt P21453)
Construct: expressed in transfected cells; host or cells: HEK-293
Sequence (P21453 whole entry): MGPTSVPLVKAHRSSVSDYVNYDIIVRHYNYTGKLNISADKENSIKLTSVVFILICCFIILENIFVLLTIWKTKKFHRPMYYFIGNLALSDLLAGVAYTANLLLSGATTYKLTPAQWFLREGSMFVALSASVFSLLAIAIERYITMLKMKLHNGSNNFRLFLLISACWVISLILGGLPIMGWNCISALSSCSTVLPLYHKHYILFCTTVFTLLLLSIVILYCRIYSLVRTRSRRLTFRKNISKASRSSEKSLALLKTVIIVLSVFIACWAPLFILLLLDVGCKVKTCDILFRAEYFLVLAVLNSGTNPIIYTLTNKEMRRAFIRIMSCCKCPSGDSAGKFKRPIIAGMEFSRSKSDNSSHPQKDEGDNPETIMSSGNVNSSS
Assay: S1P1 binding inhibition test (membrane, [33P]-S1P)
Settings: compound 10 μM; [33P]-S1P 0.1 nM; human Edg-1 (S1P1) HEK-293 membrane fraction; read-out: Binding test (membrane) % inhibition (10 μM)
MEASURED_ATTRIBUTE: inhibition at 10 µM (%)
Just the number please, in %, no unit attached.

Field: example entries. Status: answers known.
# MOLECULE, UNIT_SPEC, inhibition at 10 µM
measured = [
    ("CCn1c(C(C)NS(=O)(=O)c2ccc(Br)cc2Cl)cnc1Oc1ccc(C)cc1 (stereo not shown)", "%", 77.5),
    ("CCn1c(C(NS(=O)(=O)c2ccc(Cl)c(Cl)c2)C(C)C)cnc1Oc1ccc(F)cc1 (stereo not shown)", "%", 52.6),
    ("CCn1c(C(C)NS(=O)(=O)c2ccc(Cl)c(Cl)c2)cnc1Oc1cccc(-n2ccnc2)c1 (stereo not shown)", "%", 98.9),
    ("CCn1c(C(C)NS(=O)(=O)c2cccc(C(C)=O)c2)cnc1Oc1ccc(C)cc1 (stereo not shown)", "%", 71.2),
    ("CCn1c(C(C)NS(=O)(=O)c2cc(Br)ccc2OC)cnc1Oc1ccc(C)cc1 (stereo not shown)", "%", 82.9),
    ("CCn1c(C(C)NS(=O)(=O)c2csc3ccccc23)cnc1Oc1ccc(C)cc1 (stereo not shown)", "%", 64.2),
    ("CCn1c(C(Cc2ccc(Cl)cc2)NS(=O)(=O)c2ccc(Cl)c(Cl)c2)cnc1Oc1ccc(F)cc1 (stereo not shown)", "%", 94.4),
    ("CCn1c(Oc2ccc(F)cc2)nc(Br)c1C(C)NS(=O)(=O)c1ccc(Cl)c(Cl)c1 (stereo not shown)", "%", 92.3),
    ("CCn1c(C(C)NS(=O)(=O)c2ccc(C(C)=O)cc2)cnc1Oc1ccc(C)cc1 (stereo not shown)", "%", 96.7),
    ("CCn1c(C(C)NS(=O)(=O)c2ccc(F)cc2F)cnc1Oc1ccc(C)cc1 (stereo not shown)", "%", 61.2),
]

Attention now turns to another entry.
Item: CCn1c(C(C)NS(=O)(=O)c2ccc(OC(F)(F)F)cc2)cnc1Oc1ccc(C)cc1 (stereo not shown) | inhibition at 10 µM: 64.8

###

Overview of reported melting point across a group of molecules:

# example entries with known answers
# MOLECULE, melting point
rows = [
    ("CCn1c(C(C)NS(=O)(=O)c2ccc(Cl)c(Cl)c2)cnc1Oc1ccc(C)nc1 (stereo not drawn) [Compound 195]", "174 to 175 °C"),
    ("CCCOc1ncc(C(C)NS(=O)(=O)c2ccc(Cl)c(Cl)c2)n1CC (stereo not drawn) [Compound 223]", "181 to 183 °C"),
    ("CCn1c(C(C)NS(=O)(=O)c2ccc(Cl)c(Cl)c2)cnc1Oc1ccc(F)cc1 (stereo not drawn) [Compound 186]", "156 to 157 °C"),
    ("CCn1c(Oc2ccc(F)cc2)nc(C)c1C(C)NS(=O)(=O)c1ccc(Cl)c(Cl)c1 (stereo not drawn) [Compound 188]", "119.5 to 120.5 °C"),
]

// recorded melting point for CCn1c(C(C)NS(=O)(=O)c2ccc3c(Cl)cccc3c2)cnc1Oc1ccc(F)cc1 (stereo not drawn) [Compound 187] : 138 to 141 °C

Per the record, CCn1c(C(C)NS(=O)(=O)c2ccc(Cl)c(Cl)c2)cnc1Oc1cccc(N(C)C)c1 (stereo not drawn) [Compound 198] has melting point of 171 to 172 °C

Per the records, this molecule ( CCn1c(C(C)NS(=O)(=O)c2ccc(Cl)c(Cl)c2)cnc1OCC(F)(F)F (stereo not drawn) [Compound 224] ) has melting point equal to 133.5 to 134.5 °C

Lab note: measured melting point of CCn1c(C(C)NS(=O)(=O)c2ccc(Cl)c(Cl)c2)cnc1Oc1ccc(OCCN(C)C)cc1 (stereo not drawn) [Compound 229] was 106 to 107 °C

The recorded melting point for CCn1c(C(C)NS(=O)(=O)c2ccc3c(Cl)cccc3c2)nc(Cl)c1Oc1ccc(C)cc1 (stereo not drawn) [Compound 182] is 137.5 to 138.5 °C

Sample CCn1c(C(Cc2ccc(C)cc2)NS(=O)(=O)c2ccc(Cl)c(Cl)c2)cnc1Oc1ccc(F)cc1 (stereo not drawn) [Compound 196] ; melting point observed: 123.5 to 124 °C

Looking up CCn1c(C(C)NS(=O)(=O)c2ccc(Cl)c(Cl)c2)cnc1OCCCN1CCOCC1 (stereo not drawn) [Compound 228] , I see its melting point listed as 160.5 to 162.5 °C

// sample CCn1c(C(C)NS(=O)(=O)c2ccc(Cl)c(Cl)c2)cnc1Oc1ccc(OCCN2CCOCC2)cc1 (stereo not drawn) [Compound 214] , its melting point was 167 to 168 °C

Entry CCn1c(C(NS(=O)(=O)c2ccc3c(Cl)cccc3c2)c2ccccc2)cnc1Oc1ccc(F)cc1 (stereo not drawn) [Compound 202] , melting point reported as 171.5 to 172.5 °C

CCn1c(C(Cc2ccc(F)cc2)NS(=O)(=O)c2ccc3c(Cl)cccc3c2)cnc1Oc1ccc(F)cc1 (stereo not drawn) [Compound 200] has a reported melting point of 175 to 176 °C

Quick note, melting point for CCn1c(C(C)NS(=O)(=O)c2ccc(Cl)c(Cl)c2)cnc1Oc1cccc(N2CCOCC2)c1 (stereo not drawn) [Compound 190] landed at 167 to 169 °C
